run.description: Half life in rat plasma at 0.156 mM by UPLC/MS method
Assay type: ADME, cell-free
Square brackets hold non-standard residues; d marks the D form. Peptide text beside a SMILES is read from it. Pro(4-sila,4,4-Me2) = C[Si]1(C)CN[C@H](C(=O)O)C1; Ala(SiMe3) = C[Si](C)(C)C[C@H](N)C(=O)O; NMeR = CN[C@@H](CCCNC(=N)N)C(=O)O; hLys = NCCCCC[C@H](N)C(=O)O
observed.property: half-life at 156 µM (min)

[[record]]
molecule = "CC(C)C[C@H](NC(=O)[C@H](C[Si](C)(C)C)NC(=O)[C@H](Cc1ccc(O)cc1)NC(=O)[C@@H]1C[Si](C)(C)CN1C(=O)[C@H](CCCCN)NC(=O)[C@@H](N)CCCCCN)C(=O)O (H-[hLys]K[Pro(4-sila,4,4-Me2)]Y[Ala(SiMe3)]L-OH)"
comparison_operator = "="
value = 3.52

[[record]]
molecule = "C[Si](C)(C)C[C@H](NC(=O)[C@H](C[Si](C)(C)C)NC(=O)[C@H](Cc1ccc(O)cc1)NC(=O)[C@@H]1CCCN1C(=O)[C@H](CCCCN)NC(=O)[C@@H](N)CCCCN)C(=O)O (H-KKPY[Ala(SiMe3)][Ala(SiMe3)]-OH)"
comparison_operator = "="
value = 2.83

[[record]]
molecule = "CC(C)C[C@H](NC(=O)[C@H](C[Si](C)(C)C)NC(=O)[C@H](Cc1ccc(O)cc1)NC(=O)[C@@H]1CCCN1C(=O)[C@H](CCCCN)NC(=O)[C@@H](N)CCCCN)C(=O)O (H-KKPY[Ala(SiMe3)]L-OH)"
comparison_operator = "="
value = 2.4

[[record]]
molecule = "CC[C@H](C)[C@H](NC(=O)[C@H](Cc1ccc(O)cc1)NC(=O)[C@@H]1CCCN1C(=O)[C@H](CCCCN)NC(=O)[C@@H](N)CCCCN)C(=O)N[C@@H](C[Si](C)(C)C)C(=O)O (H-KKPYI[Ala(SiMe3)]-OH)"
comparison_operator = "="
value = 1.33

[[record]]
molecule = "CC[C@H](C)[C@H](NC(=O)[C@H](Cc1ccc(O)cc1)NC(=O)[C@@H]1CCCN1C(=O)[C@H](CCCNC(=N)N)NC(=O)[C@@H](N)CCCNC(=N)N)C(=O)N[C@@H](CC(C)C)C(=O)O"
comparison_operator = "="
value = 1.95

[[record]]
molecule = "CN[C@@H](CCCNC(=N)N)C(=O)N[C@@H](CCCCN)C(=O)N1CCC[C@H]1C(=O)N[C@@H](Cc1ccc(O)cc1)C(=O)N[C@@H](C[Si](C)(C)C)C(=O)N[C@@H](CC(C)C)C(=O)O (H-[NMeR]KPY[Ala(SiMe3)]L-OH)"
comparison_operator = ">"
value = 120


* * *

tested.on: Neurotensin receptor type 1 (Rattus norvegicus, UniProt P20789)
Sequence (P20789 whole entry): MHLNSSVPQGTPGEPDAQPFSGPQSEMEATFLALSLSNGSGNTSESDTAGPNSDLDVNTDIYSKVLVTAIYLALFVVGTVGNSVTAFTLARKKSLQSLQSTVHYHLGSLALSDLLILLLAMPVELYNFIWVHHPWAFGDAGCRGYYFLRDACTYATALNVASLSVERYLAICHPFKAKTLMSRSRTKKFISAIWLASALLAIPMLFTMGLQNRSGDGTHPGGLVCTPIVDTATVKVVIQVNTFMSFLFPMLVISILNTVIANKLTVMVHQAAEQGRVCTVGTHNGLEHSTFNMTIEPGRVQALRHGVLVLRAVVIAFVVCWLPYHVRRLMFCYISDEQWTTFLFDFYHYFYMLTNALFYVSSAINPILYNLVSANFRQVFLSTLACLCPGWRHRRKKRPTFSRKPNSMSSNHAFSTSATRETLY
run.description: Agonist activity at […] NTS1 in Sprague-Dawley rat ileum assessed as inhibition of carbachol-induced contraction
pEC50: −log10 of the molar value. Square brackets hold non-standard residues; d marks the D form. Peptide text beside a SMILES is read from it. Pro(4-sila,4,4-Me2) = C[Si]1(C)CN[C@H](C(=O)O)C1; Ala(SiMe3) = C[Si](C)(C)C[C@H](N)C(=O)O; hLys = NCCCCC[C@H](N)C(=O)O
Some compounds, each annotated with its measured pEC50.
observed.property: pEC50

[[record]]
compound = "C[Si](C)(C)C[C@H](NC(=O)[C@H](C[Si](C)(C)C)NC(=O)[C@H](Cc1ccc(O)cc1)NC(=O)[C@@H]1CCCN1C(=O)[C@H](CCCCN)NC(=O)[C@@H](N)CCCCN)C(=O)O (H-KKPY[Ala(SiMe3)][Ala(SiMe3)]-OH)"
tested_on = "Neurotensin receptor type 1 (Rattus norvegicus, UniProt P20789)"
comparison_operator = "="
value = 7.65

[[record]]
compound = "CC(C)C[C@H](NC(=O)[C@H](C[Si](C)(C)C)NC(=O)[C@H](Cc1ccc(O)cc1)NC(=O)[C@@H]1C[Si](C)(C)CN1C(=O)[C@H](CCCCN)NC(=O)[C@@H](N)CCCCCN)C(=O)O (H-[hLys]K[Pro(4-sila,4,4-Me2)]Y[Ala(SiMe3)]L-OH)"
tested_on = "Neurotensin receptor type 1 (Rattus norvegicus, UniProt P20789)"
comparison_operator = "<"
value = 5.00


* * *

tested.on: Neurotensin receptor type 2 (Homo sapiens, UniProt O95665)
Sequence (O95665 whole entry): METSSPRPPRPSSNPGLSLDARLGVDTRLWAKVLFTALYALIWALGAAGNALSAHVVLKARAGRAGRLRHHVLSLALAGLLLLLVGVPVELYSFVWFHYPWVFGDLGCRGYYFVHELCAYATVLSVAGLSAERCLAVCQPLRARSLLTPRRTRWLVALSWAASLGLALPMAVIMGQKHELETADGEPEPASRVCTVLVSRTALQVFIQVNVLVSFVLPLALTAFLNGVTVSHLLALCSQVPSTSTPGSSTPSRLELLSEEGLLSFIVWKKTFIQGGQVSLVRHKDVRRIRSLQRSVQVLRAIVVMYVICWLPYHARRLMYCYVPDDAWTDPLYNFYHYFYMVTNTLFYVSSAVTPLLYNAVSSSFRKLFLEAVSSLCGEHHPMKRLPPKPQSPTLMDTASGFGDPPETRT
run.description: Displacement of [125I]-Tyr3-NT from human NTS2 receptor expressed in 1321N1 cell membranes incubated for 30 mins by gamma-counting based competitive radioligand binding assay
Square brackets hold non-standard residues; d marks the D form. Peptide text beside a SMILES is read from it. Ala(SiMe3) = C[Si](C)(C)C[C@H](N)C(=O)O; NMeR = CN[C@@H](CCCNC(=N)N)C(=O)O
We begin with a simple list: items and their reported IC50.
observed.property: IC50

[[record]]
compound = "CC(C)C[C@H](NC(=O)[C@H](C[Si](C)(C)C)NC(=O)[C@H](Cc1ccc(O)cc1)NC(=O)[C@@H]1CCCN1C(=O)[C@H](CCCCN)NC(=O)[C@@H](N)CCCCN)C(=O)O (H-KKPY[Ala(SiMe3)]L-OH)"
value = "0.405 µM"

[[record]]
compound = "CN[C@@H](CCCNC(=N)N)C(=O)N[C@@H](CCCCN)C(=O)N1CCC[C@H]1C(=O)N[C@@H](Cc1ccc(O)cc1)C(=O)N[C@@H](C[Si](C)(C)C)C(=O)N[C@@H](CC(C)C)C(=O)O (H-[NMeR]KPY[Ala(SiMe3)]L-OH)"
value = "0.0297 µM"


* * *

tested.on: Neurotensin receptor type 2 (Homo sapiens)
run.description: Displacement of [125I]-Tyr3-NT from human NTS2 receptor expressed in 1321N1 cell membranes incubated for 30 mins by gamma-counting based competitive radioligand binding assay
Square brackets hold non-standard residues; d marks the D form. Peptide text beside a SMILES is read from it. Pro(4-sila,4,4-Me2) = C[Si]1(C)CN[C@H](C(=O)O)C1; Ala(SiMe3) = C[Si](C)(C)C[C@H](N)C(=O)O; hLys = NCCCCC[C@H](N)C(=O)O
Examples of compounds with documented IC50 follow.
observed.property: IC50

[[record]]
compound = "CC(C)C[C@H](NC(=O)[C@H](C[Si](C)(C)C)NC(=O)[C@H](Cc1ccc(O)cc1)NC(=O)[C@@H]1C[Si](C)(C)CN1C(=O)[C@H](CCCCN)NC(=O)[C@@H](N)CCCCCN)C(=O)O (H-[hLys]K[Pro(4-sila,4,4-Me2)]Y[Ala(SiMe3)]L-OH)"
observed_property = "IC50"
value = "1420 nM"

[[record]]
compound = "CC[C@H](C)[C@H](NC(=O)[C@H](Cc1ccc(O)cc1)NC(=O)[C@@H]1CCCN1C(=O)[C@H](CCCCN)NC(=O)[C@@H](N)CCCCN)C(=O)N[C@@H](C[Si](C)(C)C)C(=O)O (H-KKPYI[Ala(SiMe3)]-OH)"
observed_property = "IC50"
value = "0.26 nM"

[[record]]
compound = "C[Si](C)(C)C[C@H](NC(=O)[C@H](C[Si](C)(C)C)NC(=O)[C@H](Cc1ccc(O)cc1)NC(=O)[C@@H]1CCCN1C(=O)[C@H](CCCCN)NC(=O)[C@@H](N)CCCCN)C(=O)O (H-KKPY[Ala(SiMe3)][Ala(SiMe3)]-OH)"
observed_property = "IC50"
value = "28.9 nM"


* * *

Listed here are molecules together with their documented EC50.
tested.on: Neurotensin receptor type 1 (Homo sapiens, UniProt P30989)
Sequence (P30989 whole entry): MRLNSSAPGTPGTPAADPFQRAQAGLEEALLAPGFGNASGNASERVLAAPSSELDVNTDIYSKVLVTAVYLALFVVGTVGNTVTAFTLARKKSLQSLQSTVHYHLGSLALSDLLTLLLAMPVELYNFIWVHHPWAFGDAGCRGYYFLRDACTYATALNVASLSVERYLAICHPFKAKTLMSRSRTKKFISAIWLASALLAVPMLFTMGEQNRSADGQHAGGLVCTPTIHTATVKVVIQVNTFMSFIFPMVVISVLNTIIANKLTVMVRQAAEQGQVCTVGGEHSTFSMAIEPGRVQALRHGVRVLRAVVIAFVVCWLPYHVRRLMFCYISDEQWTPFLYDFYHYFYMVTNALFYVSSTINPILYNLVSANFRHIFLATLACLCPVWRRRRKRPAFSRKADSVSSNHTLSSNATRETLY
run.description: Agonist activity at human NTS1 receptor expressed in CHOK1 cells co-expressing hNTS1-GFP10/RlucII-beta-arrestin 2 assessed as beta-arrestin2 recruitment incubated for 15 mins by BRET assay
Format: cell-based, CHO-K1
Square brackets hold non-standard residues; d marks the D form. Peptide text beside a SMILES is read from it. Pro(4-sila,4,4-Me2) = C[Si]1(C)CN[C@H](C(=O)O)C1; Ala(SiMe3) = C[Si](C)(C)C[C@H](N)C(=O)O; NMeR = CN[C@@H](CCCNC(=N)N)C(=O)O; hLys = NCCCCC[C@H](N)C(=O)O
observed.property: EC50 (nM)

[[record]]
molecule = "CC[C@H](C)[C@H](NC(=O)[C@H](Cc1ccc(O)cc1)NC(=O)[C@@H]1CCCN1C(=O)[C@H](CCCCN)NC(=O)[C@@H](N)CCCCN)C(=O)N[C@@H](C[Si](C)(C)C)C(=O)O (H-KKPYI[Ala(SiMe3)]-OH)"
comparison_operator = "="
value = 1.49

[[record]]
molecule = "CC(C)C[C@H](NC(=O)[C@H](C[Si](C)(C)C)NC(=O)[C@H](Cc1ccc(O)cc1)NC(=O)[C@@H]1C[Si](C)(C)CN1C(=O)[C@H](CCCCN)NC(=O)[C@@H](N)CCCCCN)C(=O)O (H-[hLys]K[Pro(4-sila,4,4-Me2)]Y[Ala(SiMe3)]L-OH)"
comparison_operator = ">"
value = 1000

[[record]]
molecule = "CN[C@@H](CCCNC(=N)N)C(=O)N[C@@H](CCCCN)C(=O)N1CCC[C@H]1C(=O)N[C@@H](Cc1ccc(O)cc1)C(=O)N[C@@H](C[Si](C)(C)C)C(=O)N[C@@H](CC(C)C)C(=O)O (H-[NMeR]KPY[Ala(SiMe3)]L-OH)"
comparison_operator = "="
value = 4.19

